system: BT20 Cell; assay: Cancer Cell Lysate Total L-Glutamate Assay; assay type: cell-based; details: Homo sapiens, BT-20, 2 h, total L-glutamate in cell lysate, BT20 cells, 2 hour incubation with test compound
measured-quantity: pIC50
Remember, pIC50 is on a log scale: it is -log10 of the molar concentration.

Solved cases below.
[
  {
    "compound": "CC(=O)Nc1nnc(C2CCC(Cc3nnc(NC(=O)Cc4ncccn4)s3)C2)s1 (racemic)",
    "pIC50": 6.46
  },
  {
    "compound": "CC(=O)Nc1nnc(C2CCC(Cc3nnc(NC(=O)c4ccccc4)s3)C2)s1 (racemic)",
    "pIC50": 7.32
  },
  {
    "compound": "C[C@H](C(=O)Nc1nnc([C@@H]2CC[C@H](Cc3nnc(NC(=O)[C@H](C)c4cccnc4)s3)C2)s1)c1cccnc1 (single isomer, unassigned)",
    "pIC50": 6.19
  },
  {
    "compound": "CC(=O)Nc1nnc([C@H]2CC[C@@H](Cc3nnc(NC(=O)Cc4ccccn4)s3)C2)s1 (single isomer, unassigned)",
    "pIC50": 7.91
  },
  {
    "compound": "CC(=O)Nc1nnc(C[C@@H]2CC[C@H](c3nnc(NC(=O)Cc4ccccc4)s3)C2)s1 (single isomer, unassigned)",
    "pIC50": 8.26
  }
]

Moving on to the next compound.
Inquiry: Quick check: pIC50 of CC(C)C(=O)Nc1ccc(C[C@H]2CC[C@@H](c3nnc(NC(=O)Cc4ccccn4)s3)C2)nn1 (single isomer, unassigned) ?
Reply text: 8.52
